TEST PROTOCOL: yeast display, Sf9 membrane polyspecificity reagent, FACS + sequencing; frameworks hold sequencing errors
TEST READOUT: polyreactivity (PSR sort gate)

QVQLVESGGGLVQAGGRLRLSCAASGRIFSQYSMGWYRQAPGKERELVAAISSRGGRTYYADSVKGRFTFSRDNAKNTVYLQMNSLKPEDTAVYYCAAYVYPWGRDYWGQGTQVTVSS
high polyreactivity
QVQLVESGGGLVQAGGSLRLSCAASGRTFKRNAMGWYRQAPGKERELVAGISTGGSTNYADSVKGRFTISRDNAKNTVYLQMNSLKPEDTAVYYCAARYRTDWTPGYHVGYYYWGQGTQVTVSS
high polyreactivity

----------
TEST PROTOCOL: yeast display, Sf9 membrane polyspecificity reagent, FACS + sequencing; frameworks hold sequencing errors
TEST READOUT: polyreactivity (PSR sort gate)

Sample answers from the record:
QVQLVESGGGLVQAGGSLRLSCAASGIILYYYAMGWYRQAPGKERELVAAISSGGNTYYADSVKGRFTISRDNAKNTVYLQMYSLKPEDTAVYYCAAVTVIGGEYDYWGQGTQVTVSS
low polyreactivity
QVQLLESGGGLVQAGGSLRLSCAASGRIIPYYAMGWYRQAPGKERELVATITSGGSTYYADSVKGRFTISRDNAKNTVYLQRNSLKPEDTAVYYCAARYPSIYYYRYDYWGQGTHVTVSS
high polyreactivity
QVQLVESGGGLVQAGGSLRLSCAASGSSFGRYVMGSYRPAPGKERELVAAIRSRGGSTYYADSVKGRFTISRDIAKNTVYLQMNSLKPEYTAVYYCNDVDRKPYRTYDYWGQGTQVTVSS
high polyreactivity
QVLLVESGGGLVQAGGSLRLSCGASGITFAEYAMGWYRKAPGKEREFVAAISRRGGSTYYADSVKGRFTISRDNAKNTVYIQMNTLKPEDTAVYYCNRRYDTFRFEHDYDYWGQGTQVTVSS
low polyreactivity
QVQLVESGGGLVQAGGSLRLCCAASGSIFRPNAMGWYRQAPGKERELVAGISSRGGSTYYADSVKGRFTISRDNAKNTVYLQMNSLKPEDTAVYYCNALTYSSQRNSFYYSFDHWGQGTQVTVSS
high polyreactivity
QVQLVESGGGLVQAGGSLRVSCAASGSTFGTYGMGWYRPAPGKERELVADITSGGSTYYADSVKGRFTISRDNAKNTVYLQMNSLTPEDTAVYYCAASWFVWSTAVPYDYWGQGTQVTVSS
low polyreactivity
QVQLVESGVGLVQSGGSLRLSCAASGFIFRWYAKGWYRQAPGKERELVAAISGGGSSTYYADSVKGRFTISRDNEKNTVYLQMNSLKPEDNAVYYCAAYNTYLGYPYYYWGQGTQVTVSS
high polyreactivity
QVQLVESGGGLVQAGGSLRLSCAASGIIFAYYAMGWYRQAPGKERELVAAISWSGTSTYYADSVKGRFTISRDTATNTVYLQMNSLKPEDTAVYYCNAYGLYSDMDYWGQGTQVTVSS
high polyreactivity
QVQLEESGAGLVQAGGSLRLSCAASGRTFWFYTMGLYRQAPGKERELVAAISSAGSTNYADSVKGRFTISRDNAKNTVYLQMNSLKPEDTAVYYCNARFPVGPSEDAVWYYPKYDYWGQGTQVTVSS
low polyreactivity
QVQLVESGGGLVQAGGSLRLSCAASGITFVSYTMGWYRQAPGTEREFVAAITWNVASTYYADSVKGRFTISRDNAKNTVYLQMNSLKPEDTAVYYCAAGYDWSVITIYDYWGQGTQVTVSS
high polyreactivity

Next up:
For the sequence shown here, QVQLVESGGGLVQAGGSLRLSCAASGLIFVRYAMGWYRQAPGKERELVADISTSDGSTRYADSVKGRFTISRDNEKNTVYLQMNSLKPEDTAVYYCAGGSEYYSYGGVRFSFYYWGQGTQVTVSS , give the reported polyreactivity (PSR sort gate).
low polyreactivity

----------
TEST PROTOCOL: yeast display, Sf9 membrane polyspecificity reagent, FACS + sequencing; frameworks hold sequencing errors
TEST READOUT: polyreactivity (PSR sort gate)

These solved cases illustrate the format of a correct answer.
QVQLVESGGGLVQAGGSLRLSCAASGRIFIRNAMGWYRQAPGKERELVAAISRSGGRTYYADSVKGRFTISRDNAKNTVYLQMNSLKQEDTAVYYCARTTPYFNVDCGGYDYWGQGTQVTVSS
high polyreactivity
QVQLVESGGGLVQAGGSLRLSCAASGRTFPYYAMGWYRQAPGKERELVAAISSSGGRTYYADSVKGRFTISRDNAKNTVYLQMISLKPEDSAVYDCNVDAWYPYQGFLVGYYYWGQGTQVTVSS
low polyreactivity
QVQLVESGGGLVQAGGSLRLSCAASGSTFHYYAMGWYRQAPGKERELVAAISGSGSSTYYADSVKGRFTISRDNAKNTVYLQMNRLKPEDTAVYYCNARGHYPRARFGYKSGSDRYWGQGTQVTVSS
high polyreactivity
QVQLVESGGGLVQAGGSLRLSCAASGSIFEGYVMGCDIQAPGKERELVATISFSGGSTYYADSVKGRFTISRDNAKNTVYLQMNSLKPEDTAVYYCNALVYHTKGDYGYWGQGTQVTVSS
low polyreactivity
QVQLVESGGGLVQAGGSLRLSCAASGSTSTLYAMGWYRQAPGKERELVAAISKSGGRTYYADSVKGRFTISRDNAKNTVYLQMNSLKPEDTAVYYCNTVPGRYRTFDYWGQGTQVTVSS
high polyreactivity
QVQLVESGGGLVQAGGSLRLICAASGFTFSINTRGWYRQAPGKEREFVAGISRSGGSTYYADSVKGRFTISRDNAKNTVYLQMNSLKPEDTAVYYCNADRYSWYTPLGYDYWGQGTQVNVSS
high polyreactivity

Which polyreactivity (PSR sort gate) is reported for this sequence? QVQLVESGGGLVQAGGSLRLSCAASGIIFDDYAMGWYRQAPGKERELVAAISRGGSTYYADSVKGRFTISRDNAKNTVYIQMNSLKPEDTAVYYCAAVVYTIYARYGYCGQGTQVTVSS
high polyreactivity

Give the measured polyreactivity (PSR sort gate) of QVQLVESGGGLVHAGGSLRLSCAASGSTFTPNAMGWYRQAPRKERDLVAAIRGLNGRTYYADSVKGRITISRDNAKNTVYLQMNSLKPEDTAVYYCAAGGYSNYFAWHDYWGQCTQVTVSS .
low polyreactivity

Please report the recorded polyreactivity (PSR sort gate) for QVQLVESGGGLVQAGCSLRLSCAASGRTFVHYTMGWYRQAPGKERELVATISTSGGSTSYADSVKGRFTISRDNAKNTVYLQMNSLKPEDTAVYYCAARWYFPDRVKYDYWGQGTQVTVSS .
low polyreactivity

----------
TEST PROTOCOL: yeast display, Sf9 membrane polyspecificity reagent, FACS + sequencing; frameworks hold sequencing errors
TEST READOUT: polyreactivity (PSR sort gate)

QVQLVESGGGLVQAGGSLRLSCAASGRIFKVNTMGWYRQAPGKVRELVASIRGGGSTNYADSVKGRFTISRDNAKNTVYLQMNSLKPEDTAVYYCAAGTSKPTPIYGYWGQGTQVTGSS
low polyreactivity
QVQLVESGGGLVQAGGSLRLSCASSGRTFAGNVMGWYRQAPGKERELVAAITGRGGSTYYADSVKGRFTISRDNAKNTVYLQMNSLKPEDTAVYYCNALTWPRYYYWGQGTQVTVSS
high polyreactivity
QVQLVESGGGLVQAGGSLRLSCAASGRTFRYNPMVWYRQAPGKERELVAAITWSGGSTYYADSVKGRFKISRDNAKNTVYLQMNSLKPEDTAVYYCNRRYYAYDWGQGTQVTVSS
high polyreactivity
QVQLVESGGGLVQAGGSLRLSCAASGRTFAYYAMGWYRQAPGKERELVAAIDSSGGSTYYADSVKGRFTISRDNAKNTVYLQMNSLKPEDTAVYYCAASYPYDRYDQGGYGYWGQGTQVTVSS
low polyreactivity

# evaluate next
Reported polyreactivity (PSR sort gate), sequence QDQLVESGGGLVQAGGSLRLSCAASGSTIRVKAMGWYRLAPGKERELVAGISKSGTSTYYADSVKGRFTISRDNAKNTVYLQMNSLKPEDTAAYYCATHLGRRTSGSRFGYWGQGTQVTVSS : ____
high polyreactivity

----------
TEST PROTOCOL: yeast display, Sf9 membrane polyspecificity reagent, FACS + sequencing; frameworks hold sequencing errors
TEST READOUT: polyreactivity (PSR sort gate)

Guide cases for polyreactivity (PSR sort gate), answers given:
QVQLVESGGGLVQAGGSLLLSCAASGGTFHYNAMGWYIQAPGKERELVAAITESGGRTYYADSVKGRFTISRDNAKNTVYLQMNSLKPEDTAVYYCNADQDSDAADRSAYWGQGSQVTVSS
low polyreactivity
QVQLVESGGGLVQAGGSLRLSSAASGSTFRYYVMGRYRQAAGKERELVAGISSRGGTTYYADSVKGRFTISRDNAKNTVYLQMNSLKPEDSAVYYCNADTAAAQASYDRLYVLLDYWGQGTQVTVSS
low polyreactivity
QDQLGESGGGLVQAGGRLRLSCAASGFIIWNYGMGWYRQPPGKERELVAAISSGGTITKYADSVKGRFTISRDNAKNTVYLQMNSLKPEDTAVYYWAARWGVRAGYATFDYWGQGTQVTVSS
high polyreactivity
QVQLVESGGGLVQAGGSLRLSCAASGRIFYYYTMGWYRQAPGKERELVAGISRSGDRTYYADSVKGRFTISRDNGKNTVYLQMNSLKPEDTAVYYFAALYGYVHRKAFYYWGQGTQVTVSS
high polyreactivity
QVQLVESVGGLVQAGGSLRLSCAASGSNFSKKTMGGSRQAHGKERELVAAITTRGSSTYYADSVKGRFTISRDNAKNTVYLQMNSLKPVDTAVYYCNAPYRVTGGRYRWYDYWGQGTQVTVSS
high polyreactivity
QVQLVESGGGLVQAGGSLRLSCAASGRTFYQYTMGWYRQAPGKERELVAAITTSTGNTYYADSVKGRFTISRDNAKNTDYLQMNSLKPEDTAVYYCAADTVWRLDYWGQGTQVTVSS
low polyreactivity
QVQLVESGGGLVQAGGSLRLSCEDSGFIFRVYAMGWYLQAPGKERELVAAINSGGSTNYADSVKGRFTISRDNAKNTVYLQMNSLKPEDTAVYYCAARVKTSYRYLRTYNYCGQGTQVTVSS
high polyreactivity
QVQLVESGGGLVQAGGSLRLICAASGSIFYRNAMGWYRQAPGKERELVAVITDGGTTSYADSVKGRFTISRDNAKNTVYLQMNSLKPEDTAVYYCAADRQPVYPSLGVYWDYGHDYWGQGTQVTVSS
low polyreactivity

I'd like to know its polyreactivity (PSR sort gate). The sequence in question is QVQLVESGGGLVQAGGSLRLSCAASGFIIRSYAMGWYRQAPGKERELLAAISSRGGSTYYADSVKGRFTISRDNANNTVYLQINSLKPEDTAVYYCAADWKSKRTDKYDSWGQGTQVTVSS
high polyreactivity

# input sequence: QVQLVESGGGLVQAGGSLRLSCAASGSTFVLNAMGWYRQSPGKERQLVAGISYGTGSTYYADSVKGRITISRDNAKNTVYLQMNSLKPEDTAVYFCAADNWAVNAYYWYIYDYWGQGTQVTVSS ; wanted: its polyreactivity (PSR sort gate)
low polyreactivity

# input sequence: QVQLVESGGGLVQAGGSLRLSCAASGCTFDYNAMGWYRQAPGKEREFVAAIDYSSGSTYYADSVKGRFTISRDNAKNTVYLQMNCLKPEDTAVYYCNAPIAVGSGLFDYWGQGTQVTVSS ; wanted: its polyreactivity (PSR sort gate)
high polyreactivity
